target.or.test.system: T1, DPPIV expressed on HEK293 or CHO cells (Homo sapiens (Human), UniProt P27487 1-766)
T1 construct: also called close homologue of FAP
protocol.description: binding to DPPIV-expressing HEK293 or CHO cells
measurement.kind: binding result

Data request, read-out binding result, for 23C10 Fab (Fab, V domains shown, also called clone 23C10) VH: EVQLLESGGGLVQPGGSLRLSCAASGFTFSSSAMSWVRQAPGKGLEWVSAISTNGNYTYYADSVKGRFTISRDNSKNTLYLQMNSLRAEDTAVYYCAKGWLGNFDYWGQGTLVTVSS VL: EIVLTQSPGTLSLSPGERATLSCRASQSVSRSYLAWYQQKPGQAPRLLIIGASTRATGIPDRFSGSGSGTDFTLTISRLEPEDFAVYYCQQGQVIPPTFGQGTKVEIK no binding

Data request, read-out binding result, for 16F1 Fab (Fab, V domains shown, also called clone 16F1) VH: EVQLLESGGGLVQPGGSLRLSCAASGFTFSSYAMSWVRQAPGKGLEWVSGIIGSGGITYYADSVKGRFTISRDNSKNTLYLQMNSLRAEDTAVYYCAKGWFGGFNYWGQGTLVTVSS VL: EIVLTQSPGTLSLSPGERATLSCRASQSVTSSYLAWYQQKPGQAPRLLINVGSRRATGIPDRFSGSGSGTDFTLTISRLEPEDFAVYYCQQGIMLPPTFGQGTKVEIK no binding

Data request, read-out binding result, for 20G8 Fab (Fab, V domains shown, also called clone 20G8) VH: EVQLLESGGGLVQPGGSLRLSCAASGFTFSSYAMSWVRQAPGKGLEWVSAIIGSGSRTYYADSVKGRFTISRDNSKNTLYLQMNSLRAEDTAVYYCAKGWFGGFNYWGQGTLVTVSS VL: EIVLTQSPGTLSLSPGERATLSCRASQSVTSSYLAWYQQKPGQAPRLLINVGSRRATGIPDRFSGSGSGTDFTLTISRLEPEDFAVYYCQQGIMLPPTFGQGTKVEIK no binding
